These data points were gathered from patent US10363239B2.

Target entity: FLNA pentapeptide of SEQ ID NO: 1 (Bn-VAKGL) (Homo sapiens)
Measurement notes: FITC-NLX-based FLNA screening assay (inhibition of FITC-naloxone binding to Bn-VAKGL on streptavidin plates)
Details: FLNA-binding compound 1 μM; 10 nM FITC-NLX; read-out: Percent Binding Inhibition
Measured quantity: inhibition at 1 µM (%)

OC(COc1cccc(C(F)(F)F)c1)CN1CCc2ccccc2C1 (stereo not shown): 41.4
CC(=O)c1ccc(OCC(O)CN2CC(C)OC(C)C2)cc1 (stereo not shown): 39.6
CC(=O)c1ccc(S(=O)(=O)N2CCC3(CC2)NCCO3)cc1: 39.5
CC1CN(CC(O)COC2CCCCC2)CC(C)O1 (stereo not shown): 44
COc1ccc(S(=O)(=O)N2CCC3(CC2)OCCN3S(=O)(=O)c2ccc(OC)c(OC)c2)cc1OC: 30.3
O=C(O)c1ccc(C(=O)N2CCC3(CC2)OCCN3S(=O)(=O)c2ccc(C(=O)O)cc2)cc1: 40.6
CC1CCC(C(C)C)C(OCC(O)CN2CC(C)CC(C)C2)C1 (stereo not shown): 39.8
N#Cc1ccc(S(=O)(=O)N2CCC3(CC2)OCCN3S(=O)(=O)c2ccc(C#N)cc2)cc1: 54.4
CC1CCC(C(C)C)C(OCC(O)CN2CCCC2=O)C1 (stereo not shown): 54.9
CN(C)c1cccc(OCC(O)CN2CCc3ccccc3C2)c1 (stereo not shown): 52.1
COc1ccc(CCC(O)CC2c3c(cc4c(c3OC)OCO4)CCN2C)cc1 (stereo not shown): 43.9
CC1CCC(C(C)C)C(OCC(O)CN2CCN(C)CC2)C1 (stereo not shown): 38.9
CCN1CCC2(CC1)OCCN2S(=O)(=O)c1ccc(C(C)=O)cc1 [Compound C0094M]: 57.5
CC(=O)c1ccc(S(=O)(=O)N2CCC3(CC2)NC(=O)CO3)cc1 [Compound C0087M]: 61.5
CN1CCC2(CC1)NC(=O)CN2Cc1ccccc1 [Compound C0104M]: 55.2
CC(=O)c1ccc(S(=O)(=O)N2CCC3(CC2)OCCN3S(C)(=O)=O)cc1: 41.4

----------
Test system: mu opiate receptor (MOR)
Measurement notes: MOR agonist activity using [35S]GTPγS binding assay in striatal membranes
Type: biochemical
Details: Series B; 1 μM compound; [35S]GTPγS binding to Gαo, striatal membranes
Note to self: MOR agonist activity, percent [35S]GTPγS binding at the stated compound concentration under 200% means Criterion met, ties and anything higher get Criterion not met.

COc1ccc(C(=O)CC2c3c(cc4c(c3OC)OCO4)CC[N+]2(C)C)c(O)c1 (stereo not shown) [Compound B0033]: Criterion met
COc1cccc(CCC(=O)CC2c3c(cc4c(c3OC)OCO4)CC[N+]2(C)C)c1 (stereo not shown) [Compound B0034]: Criterion not met
COc1c2c(cc3c1C(CC(O)CCc1ccccc1)[N+](C)(C)CC3)OCO2 (stereo not shown) [Compound B0052]: Criterion met
CCOc1ccc(C(=O)CC2c3c(cc4c(c3OC)OCO4)CC[N+]2(C)C)cc1F (stereo not shown) [Compound B0020]: Criterion met
COCOc1ccc(C(=O)CC2c3c(cc4c(c3OC)OCO4)CC[N+]2(C)C)cc1C (stereo not shown) [Compound B0041]: Criterion met
COc1cccc(OC)c1CC(=O)CC1c2c(cc3c(c2OC)OCO3)CC[N+]1(C)C (stereo not shown) [Compound B0036]: Criterion met
COc1c2c(cc3c1C(CC(=O)c1ccncc1)[N+](C)(C)CC3)OCO2 (stereo not shown) [Compound B0005]: Criterion met
COc1cccc(OC)c1C(=O)CC1c2c(cc3c(c2OC)OCO3)CC[N+]1(C)C (stereo not shown) [Compound B0023]: Criterion not met
COc1ccc(CCC(=O)CC2c3c(cc4c(c3OC)OCO4)CC[N+]2(C)C)c(OC)c1 (stereo not shown) [Compound B0043]: Criterion not met
COc1c2c(cc3c1C(CC(=O)CCc1ccccc1)N(C)CC3)OCO2 (stereo not shown) [Compound B0050]: Criterion not met
COc1cc(F)ccc1C(=O)CC1c2c(cc3c(c2OC)OCO3)CC[N+]1(C)C (stereo not shown) [Compound B0007]: Criterion not met
COc1ccc(CCC(=O)CC2c3c(cc4c(c3OC)OCO4)CC[N+]2(C)C)cc1OC (stereo not shown) [Compound B0042]: Criterion met
COc1c2c(cc3c1C(CC(=O)Cc1ccccc1C)[N+](C)(C)CC3)OCO2 (stereo not shown) [Compound B0031]: Criterion not met
COCOc1ccc(CCC(=O)CC2c3c(cc4c(c3OC)OCO4)CC[N+]2(C)C)cc1 (stereo not shown) [Compound B0040]: Criterion not met
COc1cc(OC)cc(C(=O)CC2c3c(cc4c(c3OC)OCO4)CC[N+]2(C)C)c1 (stereo not shown) [Compound B0035]: Criterion not met
